Listed compounds paired with reported Activity
biological target: Ionotropic glutamate receptor NMDA 1/2D (Rattus norvegicus) (UniProt P35439+Q62645); experiment: Potentiation of rat recombinant GluN1/GluN2D expressed in Xenopus laevis oocytes assessed as increase in glutamate/glycine-induced current response at 30 uM by two-electrode voltage clamp technique relative to control; format: cell-based
Observed property: Activity (%)

- Compound: "COC(=O)c1ccc(C2C(C(C)=O)=C(O)C(=O)N2CCc2c[nH]c3ccccc23)cc1O (centres undefined)"
  System: "Ionotropic glutamate receptor NMDA 1/2D (Rattus norvegicus) (UniProt P35439+Q62645)"
  Readout value: 90
- Compound: "COC(=O)c1ccc(C2C(C(=O)c3cccnc3)=C(O)C(=O)N2CCCc2c[nH]c3ccccc23)cc1 (centres undefined)"
  System: "Ionotropic glutamate receptor NMDA 1/2D (Rattus norvegicus) (UniProt P35439+Q62645)"
  Readout value: 98
- Compound: "COC(=O)c1ccc(C2C(C(=O)c3cccc(O)c3)=C(O)C(=O)N2CCc2c[nH]c3ccccc23)cc1 (centres undefined)"
  System: "Ionotropic glutamate receptor NMDA 1/2D (Rattus norvegicus) (UniProt P35439+Q62645)"
  Readout value: 69
- Compound: "CNC(=O)c1ccc(C2C(C(=O)c3cccnc3)=C(O)C(=O)N2CCc2c[nH]c3ccccc23)cc1 (centres undefined)"
  System: "Ionotropic glutamate receptor NMDA 1/2D (Rattus norvegicus) (UniProt P35439+Q62645)"
  Readout value: 89
- Compound: "CCOC(=O)c1ccc(C2C(C(C)=O)=C(O)C(=O)N2CCc2c[nH]c3ccccc23)c(O)c1 (centres undefined)"
  System: "Ionotropic glutamate receptor NMDA 1/2D (Rattus norvegicus) (UniProt P35439+Q62645)"
  Readout value: 88
- Compound: "COC(=O)c1ccc(C2C(C(C)=O)=C(O)C(=O)N2CCc2c[nH]c3ccccc23)cc1Cl (centres undefined)"
  System: "Ionotropic glutamate receptor NMDA 1/2D (Rattus norvegicus) (UniProt P35439+Q62645)"
  Readout value: 83
- Compound: "CC(=O)C1=C(O)C(=O)N(CCc2c[nH]c3ccccc23)C1c1ccc([N+](=O)[O-])cc1 (centres undefined)"
  System: "Ionotropic glutamate receptor NMDA 1/2D (Rattus norvegicus) (UniProt P35439+Q62645)"
  Readout value: 77
- Compound: "COC(=O)c1ccc(C2C(C(=O)C(C)C)=C(O)C(=O)N2CCc2c[nH]c3ccccc23)cc1 (centres undefined)"
  System: "Ionotropic glutamate receptor NMDA 1/2D (Rattus norvegicus) (UniProt P35439+Q62645)"
  Readout value: 89
- Compound: "CN(C)C(=O)c1ccc(C2C(C(=O)c3cccnc3)=C(O)C(=O)N2CCc2c[nH]c3ccccc23)cc1 (centres undefined)"
  System: "Ionotropic glutamate receptor NMDA 1/2D (Rattus norvegicus) (UniProt P35439+Q62645)"
  Readout value: 89

---

Listed compounds paired with reported pEC50
target: Glutamate NMDA receptor; Grin1/Grin2c (Rattus norvegicus, UniProt P35439+Q00961); test: Potentiation of rat recombinant GluN1/GluN2C expressed in Xenopus laevis oocytes assessed as increase in glutamate/glycine-induced current response by two-electrode voltage clamp technique relative to control
Sequence (Q00961 whole entry, other chains not shown): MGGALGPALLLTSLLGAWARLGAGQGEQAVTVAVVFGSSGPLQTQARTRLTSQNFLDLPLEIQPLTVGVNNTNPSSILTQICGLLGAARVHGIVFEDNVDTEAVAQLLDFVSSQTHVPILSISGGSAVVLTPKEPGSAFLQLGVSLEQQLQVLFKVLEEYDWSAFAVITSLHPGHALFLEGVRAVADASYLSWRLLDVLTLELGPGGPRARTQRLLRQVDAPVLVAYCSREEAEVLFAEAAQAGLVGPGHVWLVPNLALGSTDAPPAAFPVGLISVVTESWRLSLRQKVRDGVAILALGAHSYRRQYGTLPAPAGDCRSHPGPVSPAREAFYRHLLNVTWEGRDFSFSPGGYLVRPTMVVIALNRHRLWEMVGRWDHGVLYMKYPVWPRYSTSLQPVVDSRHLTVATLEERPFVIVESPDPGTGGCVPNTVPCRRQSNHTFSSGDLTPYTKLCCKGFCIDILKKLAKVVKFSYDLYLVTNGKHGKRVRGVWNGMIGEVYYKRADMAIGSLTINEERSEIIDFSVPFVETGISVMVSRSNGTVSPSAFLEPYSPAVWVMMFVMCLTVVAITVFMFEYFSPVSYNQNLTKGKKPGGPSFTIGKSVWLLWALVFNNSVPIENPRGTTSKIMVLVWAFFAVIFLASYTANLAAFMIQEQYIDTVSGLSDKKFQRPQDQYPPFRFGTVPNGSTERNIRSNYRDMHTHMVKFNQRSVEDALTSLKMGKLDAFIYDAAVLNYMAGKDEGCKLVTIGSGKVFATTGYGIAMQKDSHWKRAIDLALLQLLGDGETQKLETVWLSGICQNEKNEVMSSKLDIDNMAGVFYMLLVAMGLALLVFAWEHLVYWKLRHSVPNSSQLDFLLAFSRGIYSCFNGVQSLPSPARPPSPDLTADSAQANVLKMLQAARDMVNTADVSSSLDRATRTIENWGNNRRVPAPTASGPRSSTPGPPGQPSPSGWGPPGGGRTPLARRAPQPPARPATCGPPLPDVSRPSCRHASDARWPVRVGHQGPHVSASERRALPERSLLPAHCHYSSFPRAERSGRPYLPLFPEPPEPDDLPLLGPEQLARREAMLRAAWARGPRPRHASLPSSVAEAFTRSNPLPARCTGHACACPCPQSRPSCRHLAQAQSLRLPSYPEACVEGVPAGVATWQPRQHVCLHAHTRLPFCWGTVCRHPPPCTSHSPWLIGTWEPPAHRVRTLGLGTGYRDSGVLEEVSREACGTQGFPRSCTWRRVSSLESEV
pEC50: −log10 of the molar value.
Observed property: pEC50

- Compound: "COC(=O)c1ccc(C2C(C(=O)c3cccc(Cl)c3)=C(O)C(=O)N2CCc2c[nH]c3ccccc23)cc1 (configuration not stated)"
  System: "Glutamate NMDA receptor; Grin1/Grin2c (Rattus norvegicus, UniProt P35439+Q00961)"
  Observed property: "pEC50"
  Readout value: 5.06
- Compound: "COC(=O)c1ccc(C2C(C(=O)c3ccncc3)=C(O)C(=O)N2CCc2c[nH]c3ccccc23)cc1 (configuration not stated)"
  System: "Glutamate NMDA receptor; Grin1/Grin2c (Rattus norvegicus, UniProt P35439+Q00961)"
  Observed property: "pEC50"
  Readout value: 5.05
- Compound: "COC(=O)c1ccc(C2C(C(=O)c3cccnc3)=C(O)C(=O)N2CCc2c[nH]c3ccccc23)cc1 (configuration not stated)"
  System: "Glutamate NMDA receptor; Grin1/Grin2c (Rattus norvegicus, UniProt P35439+Q00961)"
  Observed property: "pEC50"
  Readout value: 4.92
- Compound: "COC(=O)c1ccc(C2C(C(=O)c3cccnc3)=C(O)C(=O)N2CCc2c(C)[nH]c3ccccc23)cc1 (configuration not stated)"
  System: "Glutamate NMDA receptor; Grin1/Grin2c (Rattus norvegicus, UniProt P35439+Q00961)"
  Observed property: "pEC50"
  Readout value: 4.89
- Compound: "COC(=O)c1ccc(C2C(C(=O)c3cccnc3)=C(O)C(=O)N2CCc2c[nH]c3cc(OC)ccc23)cc1 (configuration not stated)"
  System: "Glutamate NMDA receptor; Grin1/Grin2c (Rattus norvegicus, UniProt P35439+Q00961)"
  Observed property: "pEC50"
  Readout value: 5.10
- Compound: "COC(=O)c1ccc(C2C(C(=O)c3cccnc3)=C(O)C(=O)N2CCc2c[nH]c3cc(F)ccc23)cc1 (configuration not stated)"
  System: "Glutamate NMDA receptor; Grin1/Grin2c (Rattus norvegicus, UniProt P35439+Q00961)"
  Observed property: "pEC50"
  Readout value: 4.89
- Compound: "CCOC(=O)c1ccc(C2C(C(=O)c3cccnc3)=C(O)C(=O)N2CCc2c[nH]c3ccccc23)cc1 (configuration not stated)"
  System: "Glutamate NMDA receptor; Grin1/Grin2c (Rattus norvegicus, UniProt P35439+Q00961)"
  Observed property: "pEC50"
  Readout value: 5.09
